Entry source: the supplement of paper PMC9732359

- assay_info: protein stability index of a GFP-peptide fusion (yeast GPS) (PSI 1-4); higher = more stable; sorted into four equal gates, so the index is relative within each strain
- experimental_context: doa10∆
Think of 3 as a floor: if protein stability index stands on it or above, it is 1 (yes); beneath it, 0 (no).

>>> label_value("SQLNIQLSQDEHSQVEQ [SRP72]")
"1 (yes)"
>>> label_value("SFGSKPTGKEEGDGAKA [YJL041W/NSP1]")
"1 (yes)"
>>> label_value("EDEEDDNISSFHSAVEN [YCG1]")
"1 (yes)"
>>> label_value("ISSLIGGFEYFLQPLLL [NUT1]")
"0 (no)"
>>> label_value("VMTVPGIDPTRIYTNSF [RPO21]")
"0 (no)"
>>> label_value("NDDALDLDLDLFDPDDF [MED4]")
"0 (no)"
>>> label_value("SFNMAQIPQQLYQSLTP [SNF5]")
"0 (no)"

###

- assay_info: protein stability index of a GFP-peptide fusion (yeast GPS) (PSI 1-4); higher = more stable; sorted into four equal gates, so the index is relative within each strain
- experimental_context: pdr5∆
measured_quantity: protein stability index

>>> recorded_number("DYLTLNKVVVNLNDAGL [RPN2]")
3.02
>>> recorded_number("IDNGAESSENEAEDDDN [RPC53]")
3.62
>>> recorded_number("VYNLALKCAERQLTSME [NUT1]")
2.2
>>> recorded_number("LLAQLNGTVNNNSALSN [RPT3]")
2.25
>>> recorded_number("EARLRNLTYSSGLFVDV [RPB2]")
2.25
>>> recorded_number("NSKNDSANVELFKRDCN [YCS4]")
3.05
>>> recorded_number("EVIGYIAAGTYGKVYKA [SSN3]")
2.25
>>> recorded_number("PTLFDLAFNYITYDKQE [SRP68]")
1.72
>>> recorded_number("HEYIRHLALEIGEVYND [RPN1]")
2.09
>>> recorded_number("LHKNFESENFKIIALQP [RGR1]")
2.62
>>> recorded_number("FLNHAFDYMNRYWVQKE [CDC53]")
2.48
>>> recorded_number("ENTVGLISGAGANPRVL [RPN10]")
1.46
>>> recorded_number("YVIKALQSLTSKGYVKT [RPS10A]")
1.74
>>> recorded_number("ETRAELSQLCAVPLQIV [RPO21]")
2.32
>>> recorded_number("EVLNRVASRHPSESEHP [YDL116W/NUP84]")
3.17
>>> recorded_number("FDEEFDPFKTSSFNKRS [IRR1]")
2.92
>>> recorded_number("EGLTYKYPARRIHTNDN [SSN3]")
2.89
>>> recorded_number("SEDSAVFKATSSTDEES [FAS1]")
3.21
>>> recorded_number("GDVKNMEDVKIQKEEEP [SWI3]")
3.4
>>> recorded_number("NLETLVTTKDDLSGADI [RPT2]")
3.34
>>> recorded_number("EERERKDQYVPEVSALD [RPS17A]")
3.13
>>> recorded_number("IIDEIKCIPKKGTVFQF [POP4]")
1.56
>>> recorded_number("LNDRQEEISRLQRDLIQ [YIL149C/MLP2]")
3.25
>>> recorded_number("SPTINRANVYVGFLVQL [PRP8]")
1.89
>>> recorded_number("KRVVVPQALRVLRLKPG [RPL16A]")
3.11
>>> recorded_number("KLNTFENDLLQEFDSEL [SMC3]")
3.3
>>> recorded_number("KILSPTMYMEVYTAIYN [CDC53]")
1.62
>>> recorded_number("IEPQVINYLALNAANYN [ECM29]")
2.63
>>> recorded_number("LDTQLNDLRVSLNEKNA [SMC1]")
3.13
>>> recorded_number("SFKYLSNNDEDDKDCTI [RGR1]")
2.41
>>> recorded_number("QDRLSDLIHKSEAFPSL [SMC4]")
2.7
>>> recorded_number("VGPHFKQANNFLWPFKL [RPL7A]")
3.05
>>> recorded_number("SAVKPRPLKLERGFACI [FAS1]")
2.36
>>> recorded_number("KFGLLLQVSAQERKDFL [ECM29]")
1.5
>>> recorded_number("VGDVVGGALDNPFEDDM [BRN1]")
3.37
>>> recorded_number("RWEMEAFGEFSLEGCVE [FAS2]")
3.36
>>> recorded_number("TRGGASALIENNLFRII [YJL039C/NUP192]")
2.41
>>> recorded_number("PQDLTFNAGSNPPSYQS [RPB7]")
2.99
>>> recorded_number("LLATKQHDSSANEDEEE [CSN12]")
3.05
>>> recorded_number("YLIVAGVDPTGSHLFSI [PUP1]")
2.24
>>> recorded_number("EHRIRVFFDKRIGQEVD [RPS6A]")
3.09
>>> recorded_number("FRENMSKEETVDFIKHS [PRE3]")
3.19
>>> recorded_number("KYLGLKPGSIDAISQVI [FAS1]")
3.1
>>> recorded_number("ICNPVHKHREARGLTAT [RPL15B]")
2.52
>>> recorded_number("SKISFIDEDKLYPSFKP [SSN2]")
2.8
>>> recorded_number("QSQLNVTLSQLVSVTST [MED8]")
1.79
>>> recorded_number("SNIQRNVLFLRLFNNVK [SRP72]")
2.23
>>> recorded_number("QNSYADKVTSQAVNNLI [RPP1]")
1.93
>>> recorded_number("ADVFRRCLVAVIQQDKY [SRP72]")
2.17
>>> recorded_number("DPLAKVNVLLQSYFSQL [BRR2]")
1.78
>>> recorded_number("PEWMILTCLPVPPPPVR [RPO21]")
3.52
>>> recorded_number("NPSYPGMMSTTGTARLN [YJL039C/NUP192]")
3.1
>>> recorded_number("VMYNGHTGKKLMAQIFF [RPB2]")
2.31
>>> recorded_number("WYKVAKNVGNKSPEQCI [SWI3]")
3.27
>>> recorded_number("NGFHGRLGDLGVIDDSF [SMC4]")
3.35
>>> recorded_number("MALKFVSIKFTNAAFPF [ECM29]")
1.98
>>> recorded_number("QNAAANAEAKGLDATKL [RPL17A]")
3.39
>>> recorded_number("ATEPQMVLFNIYDDWLD [PRP8]")
2.15
>>> recorded_number("MYPSPTGVMIGIDLAYN [PRP8]")
2.1
>>> recorded_number("HTVTNSPNPTLQPVIPG [SNF5]")
2.32

###

- assay_info: protein stability index of a GFP-peptide fusion (yeast GPS) (PSI 1-4); higher = more stable; sorted into four equal gates, so the index is relative within each strain
- experimental_context: pdr5∆
Think of 3 as a floor: if protein stability index stands on it or above, it is fulfilled; beneath it, not fulfilled.

>>> label_value("MYTLSAQDEVFSLAFSP [ASC1]")
"not fulfilled"
>>> label_value("EHWKVRNFKKANLVNKE [BRN1]")
"not fulfilled"
>>> label_value("EEIKQSARNYDKFKLNE [SMC1]")
"fulfilled"
>>> label_value("GGSRGGGSNYMSNLPFG [RPC31]")
"fulfilled"
>>> label_value("VVIDAFRLIDTGALINN [RPN11]")
"not fulfilled"
>>> label_value("LNTVLIADLDTEAEETS [RRP43]")
"not fulfilled"
>>> label_value("SASLHTRSLKYGKLRNG [RRP4]")
"not fulfilled"
>>> label_value("KQTGRDQMVVGWYHSHP [RPN11]")
"not fulfilled"
>>> label_value("KNLIQLISLKLLTFEVT [SRB8]")
"not fulfilled"
>>> label_value("FITNVQSISQNSSSSTP [SWI1]")
"not fulfilled"
>>> label_value("YALFLKALRRKIYINLA [SSN2]")
"not fulfilled"
>>> label_value("NVTIAQGGVLPNIHQNL [HTA1]")
"not fulfilled"
>>> label_value("TRAKIGGLNDPRLGSID [RPO21]")
"not fulfilled"

###

- assay_info: protein stability index of a GFP-peptide fusion (yeast GPS) (PSI 1-4); higher = more stable; sorted into four equal gates, so the index is relative within each strain
- experimental_context: san1∆
Below is a list of entries, each paired with its recorded protein stability index value.
measured_quantity: protein stability index

>>> recorded_number("IREIDVAGGKKALAIFV [RPS7A]")
1.49
>>> recorded_number("YAKDILQKEFLPHITQL [RPB2]")
1.4
>>> recorded_number("EEKLKANKEKKKAEKAA [RPL24A]")
3.28
>>> recorded_number("NNEKVVQYLRSVQDLGG [YML031W/NDC1]")
3.44
>>> recorded_number("EILGINLANEQPVLEKP [SIR4]")
3.21
>>> recorded_number("IPSPLSSTKPPGSVNSA [NUT1]")
2.86
>>> recorded_number("EFDSDDDDISDDEEDEI [RPN4]")
3.14
